Entries with their measured AC50, system Cytochrome P450 3A4 (Homo sapiens, UniProt P08684):

COc1ccc(NC(=O)/C(=C\c2cc(OC)c(OC)cc2[N+](=O)[O-])NC(=O)c2ccccc2)cc1 = 0.891 µM (inconclusive)
Cc1c(CC(C)(C)C(=O)O)n(Cc2ccc(Cl)cc2)c2ccc(F)cc12 = 25.1 µM (inconclusive)
c1cnc(N2CCC3(CCNCC3)CC2)nc1 = 20 µM (inconclusive)
O=c1c(-c2ccc(Cl)cc2)nc2cncnc2n1Cc1ccc(F)cc1 = 15.8 µM (inconclusive)

The reported Cytochrome P450 3A4 (Homo sapiens, UniProt P08684) AC50 of O=C(NCc1ccccc1)c1ccc(Cl)cc1[N+](=O)[O-] is 22.4 µM (inconclusive)

* * *

- ASSAY EXPLANATION: Luminescence Cell-Based Dose Retest to Confirm Inhibitors of Cancer Stem Cells. [Related pubchem assays (depositor defined):AID2717, AID2721]
- Assay type: functional
- EXPERIMENTAL SETUP: Homo sapiens
Active and inactive are the calls of the source.
MEASUREMENT TYPE: AC50

Consider the following illustrative entries.
CCCCCCCC/C=C\CCCCCCCC(=O)NCCc1ccc(O)c(O)c1 = 2.59 µM (active)
Sc1nnc(C2CCCCC2)n1/N=C/C(Cl)=C\c1ccccc1 = 5.5 µM (active)

Value of measured AC50 for the entry CCCCCc1cc(=O)oc2c(C(CCN3CCCCC3)c3ccc(OC)cc3)c(OC)cc(OC)c12 (configuration not stated) : 6.49 µM (active)

Memo: O=[N+]([O-])c1ccc(-c2nc(Nc3cccc(O)c3)c3ccccc3n2)cc1 , reported AC50: 3.24 µM (active)

In plain terms, O=C(CC1NCCc2ccccc21)Nc1ccc(Oc2ccccc2)cc1 (configuration not stated) has a documented AC50 of 7.35 µM (active)

Noted for Cc1cc([N+](=O)[O-])nn1CC(=O)N/N=C/c1ccc(O)cc1O : its AC50 reads 12.1 µM (active)

The reported AC50 of the molecule N#Cc1c(NC(=O)Cn2c(=O)oc3ccccc32)oc(-c2ccccc2)c1-c1ccccc1 was 1.97 µM (active)

* * *

IC50 reference
- TESTED TARGET: Nonstructural protein 1 (Influenza A virus, UniProt Q194T2)
- Sequence (Q194T2 whole entry): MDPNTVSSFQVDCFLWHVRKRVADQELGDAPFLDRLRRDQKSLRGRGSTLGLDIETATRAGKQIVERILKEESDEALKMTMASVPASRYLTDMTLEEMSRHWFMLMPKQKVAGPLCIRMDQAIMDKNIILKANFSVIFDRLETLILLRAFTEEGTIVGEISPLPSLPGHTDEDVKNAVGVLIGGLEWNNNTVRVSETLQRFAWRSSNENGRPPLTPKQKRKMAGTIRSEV
- Format: functional, Influenza A virus (A/California/07/2009(H1N1))
Activity calls are given as the source filed them.

CN(C1=C(N2CCOCC2)C(=O)c2ccccc2C1=O)c1ccccc1 = 11.9 µM (active)

Documented IC50 of N#CC(C#N)=c1ccc2c(c1)N1C3=C(CCCC3)CC3CCCCC31N=2 (stereo unspecified) : 11.2 µM (active)

IC50 in this record for Cc1n[nH]c(=S)n(NC(=O)CC(=O)Nn2c(=S)[nH]nc(C)c2=O)c1=O : 6.42 µM (active)

// recorded IC50 for Cc1ccc(-n2nc(C)c3c2OC(N)=C(C#N)C3c2ccc(C)o2)cc1 (stereo unspecified) : 24.9 µM (active)

get_value(item= O=C(NC(=S)NNC(=O)c1ccccc1O)c1cccnc1 , readout=IC50) returns 7.11 µM (active)

# IC50 of O=C(NCC1CCCO1)C(=O)N/N=C/c1cc(Cl)ccc1O (stereo unspecified) = 7.81 µM (active)

* * *

- TESTED TARGET: Kappa-type opioid receptor (Homo sapiens, UniProt P41145)
- Sequence (P41145 whole entry): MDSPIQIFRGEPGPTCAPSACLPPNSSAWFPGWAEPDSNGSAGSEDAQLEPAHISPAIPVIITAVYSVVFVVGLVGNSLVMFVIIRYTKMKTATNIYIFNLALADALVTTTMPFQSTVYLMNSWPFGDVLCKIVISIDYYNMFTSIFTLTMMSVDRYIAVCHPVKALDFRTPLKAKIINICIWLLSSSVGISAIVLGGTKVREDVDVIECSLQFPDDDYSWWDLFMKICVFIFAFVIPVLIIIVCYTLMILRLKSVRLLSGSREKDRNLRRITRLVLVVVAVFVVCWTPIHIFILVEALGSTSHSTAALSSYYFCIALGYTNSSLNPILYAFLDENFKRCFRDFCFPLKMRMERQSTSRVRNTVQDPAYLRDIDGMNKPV
- Type: functional
MEASUREMENT TYPE: IC50 (µM)
// return numeric value only (unit: µM, not printed)

Form field IC50, entry CC(=O)Nc1ccc(NC(=O)C(C)OC(=O)c2ccccc2C(=O)c2ccc(Cl)c([N+](=O)[O-])c2)cc1 (configuration not stated) : 8.71
